test: Selectivity index, ratio of IC50 for human LO2 cells to IC50 for human LNCAP cells; format: toxicity; conditions: LO2 cells versus LNCAP cells, read-out: Ratio IC50
Quantity: selectivity ratio

Query: Param item = CN1CCN(CCCCOc2c(OCc3ccc(C#N)cc3)cc(O)c3c(=O)cc(-c4ccccc4)oc23)CC1 ; retrieve measured selectivity ratio.
Reply: 4.3 to 27

----------
test: Selectivity index, ratio of IC50 for human LO2 cells to IC50 for human MCF7 cells; assay type: toxicity; conditions: LO2 cells versus MCF7 cells, read-out: Ratio IC50
Quantity: selectivity ratio

Query: Please report the recorded selectivity ratio for CN1CCN(CCCCOc2c(OCc3ccc(C#N)cc3)cc(O)c3c(=O)cc(-c4ccccc4)oc23)CC1 .
Reply: 4.3 to 27

----------
test: Selectivity index, ratio of IC50 for human LO2 cells to IC50 for human A549 cells; assay type: toxicity; settings: LO2 cells versus A549 cells, read-out: Ratio IC50
Quantity: selectivity ratio

Query: Fill blank: measured selectivity ratio of the compound CN1CCN(CCCCOc2c(OCc3ccc(C#N)cc3)cc(O)c3c(=O)cc(-c4ccccc4)oc23)CC1 is ____.
Reply: 4.3 to 27
